# target.under.test: T1, hu-M-IL1RAP construct, positions S21-T367 (extracellular domain of the membrane form of human IL1RAP) (human, UniProt Q9NPH3 21-367)
# T1 construct: Biotinylated when captured on the Biacore chip
# T1 sequence: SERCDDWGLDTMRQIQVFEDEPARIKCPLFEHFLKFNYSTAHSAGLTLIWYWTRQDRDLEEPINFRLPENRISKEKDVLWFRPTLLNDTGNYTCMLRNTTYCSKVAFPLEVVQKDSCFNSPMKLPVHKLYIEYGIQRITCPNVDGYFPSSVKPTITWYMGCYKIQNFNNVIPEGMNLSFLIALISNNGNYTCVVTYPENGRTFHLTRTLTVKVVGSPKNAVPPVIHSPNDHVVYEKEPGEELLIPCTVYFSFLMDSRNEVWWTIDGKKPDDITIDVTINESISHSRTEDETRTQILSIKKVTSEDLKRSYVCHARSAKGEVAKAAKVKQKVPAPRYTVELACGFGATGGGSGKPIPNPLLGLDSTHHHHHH
# experimental.details: SPR, Fab analyte, 25 C
Under this convention, 1 denotes Kd strictly below 40 pM and 0 denotes Kd at or above 40 pM.

Example entries begin here.
K11 Fab (VL A51R/K52G) (Fab, V domains shown, Fab with 8xHis tag) VH: EVQLVESGGGLVQPGGSLRLSCAASGFTFSNYAMSWVRQAPGKGLEWVATVTEGGDYNYYLDDVKGRFTISRDNAKNSLYLQMNSLRAEDTAVYYCARDRWPYFFDYWGQGTLVTVSS VL: DIQMTQSPSSLSASVGDRVTITCRASENIYSNLAWYQQKPGKSPKLLVYGRGNLADGVPSRFSGSGSGTDYTLTISSLQPEDFATYYCQHFWTTPRTFGGGTKVEIK: 1
K15 Fab (VL T94V) (Fab, V domains shown, Fab with 8xHis tag) VH: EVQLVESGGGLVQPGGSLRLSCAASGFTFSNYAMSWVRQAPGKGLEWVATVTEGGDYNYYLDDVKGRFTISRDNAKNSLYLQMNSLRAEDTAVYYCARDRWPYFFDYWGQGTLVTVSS VL: DIQMTQSPSSLSASVGDRVTITCRASENIYSNLAWYQQKPGKSPKLLVYGAKNLADGVPSRFSGSGSGTDYTLTISSLQPEDFATYYCQHFWTVPRTFGGGTKVEIK: 0
K1 Fab (VL Y30W) (Fab, V domains shown, Fab with 8xHis tag) VH: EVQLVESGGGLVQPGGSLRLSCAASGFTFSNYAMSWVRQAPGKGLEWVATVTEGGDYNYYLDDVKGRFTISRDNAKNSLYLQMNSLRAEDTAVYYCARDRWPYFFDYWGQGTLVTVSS VL: DIQMTQSPSSLSASVGDRVTITCRASENIWSNLAWYQQKPGKSPKLLVYGAKNLADGVPSRFSGSGSGTDYTLTISSLQPEDFATYYCQHFWTTPRTFGGGTKVEIK: 1
H1 Fab (VH R96A) (Fab, V domains shown, Fab with 8xHis tag) VH: EVQLVESGGGLVQPGGSLRLSCAASGFTFSNYAMSWVRQAPGKGLEWVATVTEGGDYNYYLDDVKGRFTISRDNAKNSLYLQMNSLRAEDTAVYYCARDAWPYFFDYWGQGTLVTVSS VL: DIQMTQSPSSLSASVGDRVTITCRASENIYSNLAWYQQKPGKSPKLLVYGAKNLADGVPSRFSGSGSGTDYTLTISSLQPEDFATYYCQHFWTTPRTFGGGTKVEIK: 0
K18 Fab (VL A51Y/L33G) (Fab, V domains shown, Fab with 8xHis tag) VH: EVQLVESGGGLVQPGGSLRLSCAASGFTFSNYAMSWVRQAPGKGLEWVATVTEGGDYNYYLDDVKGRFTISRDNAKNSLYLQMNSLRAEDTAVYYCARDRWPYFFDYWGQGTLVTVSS VL: DIQMTQSPSSLSASVGDRVTITCRASENIYSNGAWYQQKPGKSPKLLVYGYKNLADGVPSRFSGSGSGTDYTLTISSLQPEDFATYYCQHFWTTPRTFGGGTKVEIK: 1

Now take the following binder into account.
// query Does the reported Kd of the following binder sit strictly below 40 pM? K3 Fab (VL W92K) (Fab, V domains shown, Fab with 8xHis tag) VH: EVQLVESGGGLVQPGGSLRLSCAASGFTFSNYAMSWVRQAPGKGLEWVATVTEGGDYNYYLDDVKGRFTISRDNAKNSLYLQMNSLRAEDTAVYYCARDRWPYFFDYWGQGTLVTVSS VL: DIQMTQSPSSLSASVGDRVTITCRASENIYSNLAWYQQKPGKSPKLLVYGAKNLADGVPSRFSGSGSGTDYTLTISSLQPEDFATYYCQHFKTTPRTFGGGTKVEIK
// result 0
